system: SK-OV-3; assay: Cytotoxicity against human SKOV3 cells after 48 hrs by neutral red assay; type: functional, cell-based; details: SK-OV-3, 48 h
Parameter IC50: see the listing below.
valueKind: IC50 (µg/mL)

itemSmiles | unitOfMeasure | relationOperator | valueObserved
C[C@@H]1[C@H](O)[C@@H](C)/C=C/C=C/C=C/C=C/C=C/C=C/C=C/[C@H](O[C@@H]2O[C@H](C)[C@@H](O)[C@H](N)[C@@H]2O)C[C@@H]2O[C@](O)(C[C@@H](O)C[C@@H](O)[C@H](O)CC[C@@H](O)C[C@@H](O)CC(=O)O[C@H]1C)C[C@H](O)[C@H]2C(=O)O | µg/mL | > | 25
C[C@@H]1N[C@H](CCCCCCCCCCc2cc(CCCCCCCCCC[C@H]3CC[C@@H](O)[C@@H](C)N3)c[n+]3c2CCC3)CC[C@H]1O | µg/mL | = | 4.5
C[C@H]1N[C@@H](CCCCCCCCCCC2=C[C@@H](CCCCCCCCCC[C@H]3CC[C@@H](O)[C@@H](C)N3)[C@@H]3CCCN3C2)CC[C@H]1O | µg/mL | = | 4.7
C[C@H]1N[C@@H](CCCCCCCCCCC2=C[C@@H](CCCCCCCCCC[C@@H]3CC[C@H](O)[C@@H](C)N3)[C@@H]3CCCN3C2)CC[C@H]1O | µg/mL | < | 1.1
COc1cccc2c1C(=O)c1c(O)c3c(c(O)c1C2=O)C[C@@](O)(C(=O)CO)C[C@@H]3O[C@H]1C[C@H](N)[C@H](O)[C@H](C)O1 | µg/mL | < | 0.55
